Values were extracted from PubChem BioAssay (NCATS).

# Tested on: NIH3T3
# assay-summary: Cytotoxic Profiling of Annotated Libraries Using Quantitative High-Throughput Screening (AID 1296008); note: nearly all actives have a fitted effect of over 60% in size; for max response: % is set by controls: 0 for no effect and ±100 for the full control effect
# run-conditions: Five cell lines viability, CellTiter-Glo ATP luminescence, 48-72 h; hits give low values
Inconclusive results are not listed. Activity calls are given as the source filed them. Calls come from the whole dose curve; as a rule, active = well fitted inhibition curve with a large enough effect; inconclusive = small, poorly fitted or top-dose-only effect; inactive = flat fitted curve, though single readings scatter.
Exercise: for every item that follows, state its recorded max response.

Lookup result for C=C(C)C1CCC(C)C12CC(O)C1(C)OC1C2OC(=O)C(N)CCC(=O)O (stereo not drawn) ; measured max response: 4.47% (inactive)

The reported value for COC(=O)C12C(=O)C(C)=C(O)C1(C)C(C)=CC1C3(CO)CCC(O)C(C)(C)C3CCC12C (stereo not drawn) in terms of max response is -3.91% (inactive)

For record CC1=C2C(O)C(=O)OC(c3ccoc3)C2(C)CCC1O (stereo not drawn) the listed max response is 3.37% (inactive)

Entry C=C1CCCC2(C)CC3(OC)OC(=O)C(C)=C3CC12 (stereo not drawn) — recorded max response = -10.6% (inactive)

For reference, reported max response for Cc1cc(NC(=O)Nc2ccc(F)c(F)c2)n(-c2ccccc2)n1 stands at -11% (inactive)

response.value for CC(C)CN(C[C@@H](O)[C@H](Cc1ccccc1)NC(=O)O[C@@H]1CO[C@H]2OCC[C@H]21)S(=O)(=O)c1ccc(N)cc1 (field: max response) = -1.09% (inactive)

Input OC[C@H]1O[C@@H](OCCc2ccc(O)cc2)[C@H](O[C@@H]2OC[C@](O)(CO)[C@H]2O)[C@@H](O)[C@@H]1O . Output max response: -3.47% (inactive)

Entry C[C@@H]1O[C@@H](OC[C@H]2O[C@@H](OC(CCCCc3ccc(O)cc3)CCc3ccc(O)cc3)[C@H](O)[C@@H](O)[C@@H]2O)[C@H](O)[C@H](O)[C@H]1O (stereo partly drawn) , max response reported as -4.82% (inactive)

---

# Tested on: KB-3-1
# assay-summary: Cytotoxic Profiling of Annotated Libraries Using Quantitative High-Throughput Screening (AID 1296008); note: nearly all actives have a fitted effect of over 60% in size
# run-conditions: Five cell lines viability, CellTiter-Glo ATP luminescence, 48-72 h
Inconclusive results are not listed. Activity calls are given as the source filed them. Calls follow the shape of the dose curve; as a rule, active = well fitted inhibition curve with a large enough effect; inconclusive = small, poorly fitted or top-dose-only effect; inactive = flat fitted curve, though single readings scatter.
Thanks in advance; please answer with one of these: active, inactive

What did the test return for Cc1ccc([N+](=O)[O-])cc1S(=O)(=O)N(C)/N=C/c1cnc2ccc(Br)cn12 ?
active

Can you look up the reported call for CCCOC(c1cc2nccc(C(=O)O)c2[nH]1)c1ccccc1Cl (stereo not drawn) for me?
inactive

What outcome does the record of this test show for CC(=O)O[C@@H]1C[C@H](O)[C@@]23CO[C@H](O)[C@]1(C)C2C[C@@H](O)[C@]1(C)C3C(=O)[C@H](OC(C)=O)[C@@]2(C)[C@H](c3ccoc3)C[C@H]3O[C@]321 (stereo partly drawn) ?
active

Dear colleague, could you share the recorded outcome for CN(C)c1nc(NC2CCC(NC(=O)c3ccc(F)c(F)c3)CC2)nc2ccccc12 (stereo not drawn) when you have a moment?
active

Assay result, entry CC12CCC(=O)C=C1C(O)CC1C2C(O)CC2(C)C1CC[C@]2(O)C(=O)CO (stereo partly drawn) — outcome?
inactive

Hi, sorry to bother you, what did the test record for CC(C)(F)C[C@@H](N[C@@H](c1ccc(-c2ccc(S(C)(=O)=O)cc2)cc1)C(F)(F)F)C(=O)NC1(C#N)CC1 ?
inactive

// return assay outcome for C=C1C[C@]23C[C@H]1CC[C@H]2[C@@]1(C)CCC[C@@]2(C)C(=O)O[C@@H]([C@@H]3O)[C@@H]12
inactive

Outcome logged for CC1(C)C=CN2C(=O)C3=CCCN3C(=O)[C@@H]2C[C@@]12Nc1ccccc1C2=O in this assay:
inactive

Dear all, I need the recorded test outcome for CC(=O)C12OC(C)(C)OC1CC1C3CCC4=CC(=O)C=CC4(C)C3(F)C(O)CC12C (stereo not drawn) , thank you.
inactive

Hi, sorry to bother you, what did the test record for CCOCc1cc(OC)c(-c2ccc(C[C@H](NC(=O)c3c(F)cccc3F)C(=O)O)cc2)c(OC)c1 ?
inactive

Hi, sorry to bother you, what did the test record for CNCc1ccc(-c2cc(-c3nc(-c4ccc(S(=O)(=O)C(C)C)cc4)cnc3N)on2)cc1 ?
active

Hey, what did the test say about COc1cc2c(cc1O)CC[C@H]1[C@@H]2CC[C@]2(C)[C@H](O)CC[C@@H]12 ?
active

Assay result, entry CC1C(=O)OCC2=CCN3CCC(OC(=O)C(C)(O)C1(C)O)C23 (stereo not drawn) — outcome?
inactive

Just curious, what result did Cn1cncc1C(N)(c1ccc(Cl)cc1)c1ccc2c(c1)c(-c1cccc(Cl)c1)cc(=O)n2C (stereo not drawn) get here?
active

In this assay, the call recorded for CC(C)(O)/C=C/CC(C)(O)C1C(O)CC2(C)C3CCC4C(C)(C)C(=O)CCC4(C)C3CCC12C (stereo not drawn) was what?
inactive

Per the assay record, what outcome was assigned to O=c1[nH]ccc2cc(OC3CCNCC3)ccc12 ?
inactive

What was the test verdict on C#CC[C@H](c1nc2cc(Cl)ccc2c(=O)n1Nc1ccccc1)N(CCCN)C(=O)c1cccc(Cl)c1F ?
active

I'd appreciate the recorded outcome for CC1(C)CC(NC(=O)C(=O)Nc2ccc(Br)cc2)CC(C)(C)N1 from this test.
active
